Hey, just so you know, these numbers are from patent US4552879A.

Test system: Klebsiella pneumoniae
Experimental Details: Minimum inhibitory concentration, serial dilution method on agar plate
Type: cell-based
Experimental Conditions: 1×10^8 cells/ml, read-out: Minimum Inhibitory Concentration
MIC for assorted compounds
Provide the reading as a plain figure in µg/mL.

Please review the entries below; each comes with its answer.
CC(=O)OC1CCN(c2c(F)cc3c(=O)c(C(=O)O)cn4c3c2CCC4C)CC1 (stereo not drawn): 0.39
CC1Cc2c(N3CCCC3)c(F)cc3c(=O)c(C(=O)O)cn1c23 (stereo not drawn): 0.2
CC1CCc2c(N3CCC(O)CC3)c(F)cc3c(=O)c(C(=O)O)cn1c23 (stereo not drawn): 0.39
CC1Cc2c(N3CCOCC3)c(F)cc3c(=O)c(C(=O)O)cn1c23 (stereo not drawn): 0.2

Entry CC1Cc2c(N3CCN(C(F)(F)F)CC3)c(F)cc3c(=O)c(C(=O)O)cn1c23.Cl (stereo not drawn) ; MIC = 0.05

Lab book: MIC of CC1CCc2c(N3CCCCC3)c(F)cc3c(=O)c(C(=O)O)cn1c23 (stereo not drawn) noted as 1.56

----------
Tested on: Pseudomonas putida 12996
Experimental Details: Minimum inhibitory concentration, serial dilution method on agar plate
Format: cell-based
Experimental Conditions: Pseudomonas putida, 12996, 1×10^8 cells/ml; read-out: Minimum Inhibitory Concentration
The following compounds are shown together with reported MIC values.

CC(=O)OC1CCN(c2c(F)cc3c(=O)c(C(=O)O)cn4c3c2CCC4C)CC1 (centres unmarked): 6.25 µg/mL

Proceed to the following item.
Pseudomonas putida 12996 data for CC1CCc2c(N3CCOCC3)c(F)cc3c(=O)c(C(=O)O)cn1c23 (centres unmarked) ; its MIC: 6.25 µg/mL

----------
Tested on: Klebsiella pneumoniae
Experimental Details: Minimum inhibitory concentration, serial dilution method on agar plate
Assay type: cell-based
Experimental Conditions: 1×10^6 cells/ml, read-out: Minimum Inhibitory Concentration
Listed next: entries and their corresponding MIC.
Reply with the number and its unit after it.

The reported MIC of the compound CC1Cc2c(N3CCOCC3)c(F)cc3c(=O)c(C(=O)O)cn1c23 (stereo not drawn) was 0.1 µg/mL

// MIC lookup, compound = CC1Cc2c(N3CCN(C(F)(F)F)CC3)c(F)cc3c(=O)c(C(=O)O)cn1c23.Cl (stereo not drawn) , result: 0.012 µg/mL

MIC reported for this compound CC(=O)OC1CCN(c2c(F)cc3c(=O)c(C(=O)O)cn4c3c2CCC4C)CC1 (stereo not drawn) : 0.39 µg/mL

The measured MIC associated with CC1CCc2c(N3CCC(O)CC3)c(F)cc3c(=O)c(C(=O)O)cn1c23 (stereo not drawn) reads 0.39 µg/mL

For reference, reported MIC for CC1CCc2c(N3CCCCC3)c(F)cc3c(=O)c(C(=O)O)cn1c23 (stereo not drawn) stands at 1.56 µg/mL

Measured MIC of CC1Cc2c(N3CCCC3)c(F)cc3c(=O)c(C(=O)O)cn1c23 (stereo not drawn) : 0.2 µg/mL

----------
Test system: Escherichia Coli NIHJ JC-2 (IFO 12734)
Experimental Details: Minimum inhibitory concentration, serial dilution method on agar plate
Type: cell-based
Experimental Conditions: 1×10^6 cells/ml, read-out: Minimum Inhibitory Concentration
Outcome Measure: MIC (µg/mL)
Give the value in µg/mL but do not write µg/mL after it.

Solved cases below.
CC1CCc2c(N3CCCCC3)c(F)cc3c(=O)c(C(=O)O)cn1c23 (stereo not drawn): 1.56
CC1Cc2c(N3CCN(C(F)(F)F)CC3)c(F)cc3c(=O)c(C(=O)O)cn1c23.Cl (stereo not drawn): 0.024
CC1Cc2c(N3CCOCC3)c(F)cc3c(=O)c(C(=O)O)cn1c23 (stereo not drawn): 0.2
CC1Cc2c(N3CCCC3)c(F)cc3c(=O)c(C(=O)O)cn1c23 (stereo not drawn): 0.2
CC1CCc2c(N3CCC(O)CC3)c(F)cc3c(=O)c(C(=O)O)cn1c23 (stereo not drawn): 0.39

Turning now to a further record.
# value of MIC, Escherichia Coli NIHJ JC-2 (IFO 12734), item CC(=O)OC1CCN(c2c(F)cc3c(=O)c(C(=O)O)cn4c3c2CCC4C)CC1 (stereo not drawn) = 0.39

----------
Test system: Staphylococcus aureus FDA 209 P
Experimental Details: Minimum inhibitory concentration, serial dilution method on agar plate
Format: cell-based
Experimental Conditions: Staphylococcus aureus, FDA209, 1×10^6 cells/ml; read-out: Minimum Inhibitory Concentration
compounds and their reported MIC
Give just the number in µg/mL; leave the unit off.

CC1Cc2c(N3CCCC3)c(F)cc3c(=O)c(C(=O)O)cn1c23 (centres unmarked) [Compound 6]: 0.024
CC1Cc2c(N3CCN(C(F)(F)F)CC3)c(F)cc3c(=O)c(C(=O)O)cn1c23.Cl (centres unmarked) [Compound 8]: 0.024
CC(=O)OC1CCN(c2c(F)cc3c(=O)c(C(=O)O)cn4c3c2CCC4C)CC1 (centres unmarked) [Compound 3]: 0.05
CC1CCc2c(N3CCCCC3)c(F)cc3c(=O)c(C(=O)O)cn1c23 (centres unmarked) [Compound 4]: 0.05
CC1Cc2c(N3CCOCC3)c(F)cc3c(=O)c(C(=O)O)cn1c23 (centres unmarked) [Compound 7]: 0.024

Noted for CC1CCc2c(N3CCOCC3)c(F)cc3c(=O)c(C(=O)O)cn1c23 (centres unmarked) [Compound 2] : its MIC reads 0.025

Recorded MIC (compound CC1CCc2c(N3CCC(N(C)C)CC3)c(F)cc3c(=O)c(C(=O)O)cn1c23 (centres unmarked) [Compound 5] ): 0.05

----------
Items are presented alongside their recorded MIC.
Test system: Pseudomonas aeruginosa ATCC 10145
Experimental Details: Minimum inhibitory concentration, serial dilution method on agar plate
Format: cell-based
Experimental Conditions: Pseudomonas aeruginosa, ATCC10145, 1×10^6 cells/ml; read-out: Minimum Inhibitory Concentration
Provide only the numeric value, understood in µg/mL.

Before answering, review these 2 worked examples.
CC1CCc2c(N3CCCCC3)c(F)cc3c(=O)c(C(=O)O)cn1c23 (centres unmarked): 12.5
CC(=O)OC1CCN(c2c(F)cc3c(=O)c(C(=O)O)cn4c3c2CCC4C)CC1 (centres unmarked): 3.13

Entry CC1CCc2c(N3CCC(N(C)C)CC3)c(F)cc3c(=O)c(C(=O)O)cn1c23 (centres unmarked) ; MIC = 3.13

Record CC1Cc2c(N3CCN(C(F)(F)F)CC3)c(F)cc3c(=O)c(C(=O)O)cn1c23.Cl (centres unmarked) . Reported MIC: 0.39

GET /value?item= CC1Cc2c(N3CCCC3)c(F)cc3c(=O)c(C(=O)O)cn1c23 (centres unmarked) &field=MIC returns 1.56

Note to self: MIC recorded for CC1CCc2c(N3CCC(O)CC3)c(F)cc3c(=O)c(C(=O)O)cn1c23 (centres unmarked) was 3.13

Value of MIC reported for the compound CC1Cc2c(N3CCOCC3)c(F)cc3c(=O)c(C(=O)O)cn1c23 (centres unmarked) is 1.56

So for CC1CCc2c(N3CCOCC3)c(F)cc3c(=O)c(C(=O)O)cn1c23 (centres unmarked) , the logged MIC turned out to be 3.13

----------
Test system: Proteus rettgeri NIH 96
Experimental Details: Minimum inhibitory concentration, serial dilution method on agar plate
Type: cell-based
Experimental Conditions: Providencia rettgeri, NIH96, read-out: Minimum Inhibitory Concentration, 1×10^6 cells/ml
Outcome Measure: MIC (µg/mL)
The answer is to be given in µg/mL; state only the numeric part.

CC(=O)OC1CCN(c2c(F)cc3c(=O)c(C(=O)O)cn4c3c2CCC4C)CC1 (stereo not shown) [Compound 3]: 0.2
CC1CCc2c(N3CCC(O)CC3)c(F)cc3c(=O)c(C(=O)O)cn1c23 (stereo not shown) [Compound 1]: 0.1
CC1CCc2c(N3CCC(N(C)C)CC3)c(F)cc3c(=O)c(C(=O)O)cn1c23 (stereo not shown) [Compound 5]: 0.2

Now consider a different compound.
MIC of CCn1cc(C(=O)O)c(=O)c2ccc(C)nc21 [Compound 9, reference compound] , assay on Proteus rettgeri NIH 96, is 1.56

----------
Test system: Pseudomonas putida 12996
Experimental Details: Minimum inhibitory concentration, serial dilution method on agar plate
Format: cell-based
Experimental Conditions: Pseudomonas putida, 12996, 1×10^8 cells/ml; read-out: Minimum Inhibitory Concentration
Outcome Measure: MIC (µg/mL)
Entry rule: numbers only, all in µg/mL.

A selection of reference data follows.
CC1CCc2c(N3CCCCC3)c(F)cc3c(=O)c(C(=O)O)cn1c23 (stereo not drawn): 25
CC1CCc2c(N3CCC(N(C)C)CC3)c(F)cc3c(=O)c(C(=O)O)cn1c23 (stereo not drawn): 6.25

Here's the next entry for you.
MIC reading for CC1CCc2c(N3CCC(O)CC3)c(F)cc3c(=O)c(C(=O)O)cn1c23 (stereo not drawn) : 6.25
